biological target: ERα (Homo sapiens); construct: ERα expression was detected in MCF-7 cell lysates treated with 100 nM antiestrogens in serum-free medium for 24 hours; endogenous in cells; host or cells: MCF-7; assay: ERα expression in MCF-7 cell lysates (immunoblot); assay type: cell-based; settings: MCF-7 cells, 100 nM compound, serum-free medium, 24 hours, immunoblot band intensity
Measured Property: Relative change ERα levels (% vehicle) (% veh)
Number in % veh, nothing else.

In the examples that follow, each entry is paired with its recorded Relative change ERα levels (% vehicle).
CCCN1CC(Oc2ccc(C3Oc4cc(O)ccc4C(C)=C3c3ccccc3)cc2)C1 (single isomer, unassigned) [Compound 117]; 45
CC1=C(c2ccc(O)cc2)C(c2ccc(OC3CN(CCC(F)(F)F)C3)cc2)Oc2cc(O)ccc21 (single isomer, unassigned) [Compound 110]; 104
CCCN1CC(Oc2ccc(C3Oc4cc(O)ccc4C(C)=C3c3ccc(O)cc3)cc2)C1 (stereo not shown) [Compound 104]; 44

# input for lookup
So what does the record say about Relative change ERα levels (% vehicle) for CC1=C(c2ccc(O)cc2)C(c2ccc(OC3CN(CCC(F)(F)F)C3)cc2)Oc2cc(O)ccc21 (single isomer, unassigned) [Compound 111] ?
82

###

Target: ERα (Homo sapiens)
Construct: ERα expression was detected in MCF-7 cell lysates treated with 100 nM antiestrogens in serum-free medium for 24 hours; endogenous in cells; host or cells: MCF-7
Sequence (P03372 1-595): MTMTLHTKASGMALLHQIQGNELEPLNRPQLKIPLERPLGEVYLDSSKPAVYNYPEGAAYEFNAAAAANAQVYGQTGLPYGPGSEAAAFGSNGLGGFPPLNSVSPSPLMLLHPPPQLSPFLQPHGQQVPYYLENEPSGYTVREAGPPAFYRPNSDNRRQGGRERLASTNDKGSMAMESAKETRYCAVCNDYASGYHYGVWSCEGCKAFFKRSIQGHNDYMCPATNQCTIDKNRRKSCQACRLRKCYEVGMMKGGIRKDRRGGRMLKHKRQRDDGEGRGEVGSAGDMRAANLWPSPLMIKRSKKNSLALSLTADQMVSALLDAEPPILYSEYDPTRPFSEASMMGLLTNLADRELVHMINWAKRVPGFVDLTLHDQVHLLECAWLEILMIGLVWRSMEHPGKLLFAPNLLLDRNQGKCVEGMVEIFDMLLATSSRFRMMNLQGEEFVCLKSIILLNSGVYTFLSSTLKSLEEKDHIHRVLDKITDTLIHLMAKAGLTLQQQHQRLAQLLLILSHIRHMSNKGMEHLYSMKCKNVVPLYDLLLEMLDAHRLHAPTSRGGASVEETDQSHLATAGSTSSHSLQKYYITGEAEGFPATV
Test: ERα expression in MCF-7 cell lysates (immunoblot)
Assay type: cell-based
Conditions: MCF-7 cells, 100 nM compound, serum-free medium, 24 hours, immunoblot band intensity
Measured Property: Relative change ERα levels (% vehicle) (% veh)
Express the result in % veh but write the number alone.

Recorded results for 3 compounds are shown here.
CCCN1CC(Oc2ccc(C3Oc4cc(O)ccc4C(C)=C3c3ccccc3)cc2)C1 (single isomer, unassigned) [Compound 118]; 55
CCCN1CC(Cc2ccc(C3Oc4cc(O)ccc4C(C)=C3c3ccc(O)cc3)cc2F)C1 (single isomer, unassigned) [Compound 112]; 35
CCCN1CC(Cc2ccc(C3Oc4cc(O)ccc4C(C)=C3c3ccc(O)cc3)cc2)C1 (stereo not shown) [Compound 101]; 51

Proceeding to the next compound to report its Relative change ERα levels (% vehicle).
Consider the compound shown here: CCCN1CC(Oc2ccc(C3Oc4cc(O)ccc4C(C)=C3c3ccccc3Cl)cc2)C1 (stereo not shown) What is its recorded Relative change ERα levels (% vehicle)?
61

All figures here come from patent US20170362210A1.
